Cited source for all entries: patent US20170000749A1

Test system: HDAC activity in primary mouse cortical cultures
protocol: Whole-Cell Histone Deacetylase (HDAC) Inhibition Assay in Primary Mouse Cortical Cultures
Format: cell-based
run parameters: whole-cell (WC), mouse cortical neurons; Table 8; read-out: HDAC Inhibition (IC50 μM) WC mouse cortical neurons
readout kind: IC50

compound	target under test	experimental value
O=C(NO)c1ccc(C2=Nc3ccccc3Oc3c(OC(F)(F)F)cccc32)cc1	HDAC activity in primary mouse cortical cultures	> 15 µM
CSc1cccc2c1Oc1ccccc1N=C2c1ccc(C(=O)NO)cc1	HDAC activity in primary mouse cortical cultures	1 to 5 µM
O=C(NO)c1ccc(CCNC2=Nc3ccccc3Oc3ccccc32)cc1	HDAC activity in primary mouse cortical cultures	5 to 15 µM
O=C(NO)c1ccc(C2=Nc3ccccc3Oc3ccccc32)cc1	HDAC activity in primary mouse cortical cultures	< 1 µM
O=C(NO)c1ccc(C2=Nc3ccccc3Oc3c2cccc3C(F)(F)F)cc1	HDAC activity in primary mouse cortical cultures	> 15 µM
CS(=O)(=O)c1cccc2c1Oc1ccccc1N=C2c1ccc(C(=O)NO)cc1	HDAC activity in primary mouse cortical cultures	1 to 5 µM

Query (compound): "CCN1c2ccccc2N=C(c2ccc(C(=O)NO)cc2)c2ccccc21" ; field requested: IC50 1 to 5 µM
